biological target: DNA polymerase beta (Homo sapiens, UniProt P06746); test: Inhibition of human DNA polymerase beta
pIC50: −log10 of the molar value.
Measured quantity: pIC50

Kindly note the recorded pIC50 for COc1ccc(C2C3=C(CC(C)(C)CC3=O)Nc3ccccc3N2C(C)=O)cc1OCc1ccccc1 (stereo unspecified) , which is < 4.00
